Assay: NCI Yeast Anticancer Drug Screen. Data for the sgs1 mgt1 strain (AID 161);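 also: 0% = growth of cultures given vehicle only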
Settings: S. cerevisiae sgs1 mgt1 strain, at 50.0 µM, active compounds read high
About 79,000 compounds went through this panel and 15% of them were active in at least one assay; those are over-represented in the sample as a whole. Activity calls are given as the source filed them. Rule as the data show it: active = growth inhibition above about 70%; inactive = the rest.
measuredProperty: growth inhibition

# compound, growth inhibition
records = [
    ("O=C(COc1cc(Cl)ccc1Cl)NCc1ccc(Cl)cc1", "12.6% (inactive)"),
    ("CCCCS/C=C\\SCCCC", "-8.5% (inactive)"),
    ("COc1ccc(-c2c3c(nc4nc(SC)nc(SC)c24)CCCC3)cc1OC", "1.25% (inactive)"),
    ("C=CCc1ccc(O)c(OC)c1", "-10.4% (inactive)"),
    ("Cn1c(=O)c2c(ncn2CCSS(=O)(=O)O)n(C)c1=O", "12.2% (inactive)"),
]

Consider the following items and state reported growth inhibition for each.
1. O=C1C=CC(=NCl)C=C1
2. O=C(NCCCN1CCN(CCCNC(=O)Nc2ccc(Br)cc2)CC1)Nc1ccc(Br)cc1
3. CN(CCN1CCOCC1)C(c1ccccc1)c1ccccc1

Result string:
1: 4.35% (inactive); 2: 38.4% (inactive); 3: 87.9% (active)
